# key: entry, value: Cross-reactivity
test system: antiserum RY849; experiment: ELISA for di-n-butyl phthalate and cross-reactivity test; assay type: binding, rabbit; settings: ELISA system for di-n-butyl phthalate
Reply with just the number (in %).

1. COC(=O)c1ccccc1C(=O)OC [Dimethyl phthalate]    1.2
2. CCOC(=O)c1ccccc1C(=O)OCC [Diethyl phthalate]    4
3. CCCCOC(=O)c1ccccc1C(=O)OCc1ccccc1 [benzyl n-butyl phthalate]    100

Next:
Given CC/C(=C(/CC)c1ccc(O)cc1)c1ccc(O)cc1 , respond with its Cross-reactivity.
1.5

// provenance: patent US6399318B1
